// data source = ChEMBL document CHEMBL1124545

target: Muscarinic acetylcholine receptor M3 (Rattus norvegicus, UniProt P08483); test: Binding affinity for glandular muscarinic acetylcholine receptor M3 in rat assayed using 0.3 nM [3H]N-methylscopolamine as radioligand
Sequence (P08483 whole entry): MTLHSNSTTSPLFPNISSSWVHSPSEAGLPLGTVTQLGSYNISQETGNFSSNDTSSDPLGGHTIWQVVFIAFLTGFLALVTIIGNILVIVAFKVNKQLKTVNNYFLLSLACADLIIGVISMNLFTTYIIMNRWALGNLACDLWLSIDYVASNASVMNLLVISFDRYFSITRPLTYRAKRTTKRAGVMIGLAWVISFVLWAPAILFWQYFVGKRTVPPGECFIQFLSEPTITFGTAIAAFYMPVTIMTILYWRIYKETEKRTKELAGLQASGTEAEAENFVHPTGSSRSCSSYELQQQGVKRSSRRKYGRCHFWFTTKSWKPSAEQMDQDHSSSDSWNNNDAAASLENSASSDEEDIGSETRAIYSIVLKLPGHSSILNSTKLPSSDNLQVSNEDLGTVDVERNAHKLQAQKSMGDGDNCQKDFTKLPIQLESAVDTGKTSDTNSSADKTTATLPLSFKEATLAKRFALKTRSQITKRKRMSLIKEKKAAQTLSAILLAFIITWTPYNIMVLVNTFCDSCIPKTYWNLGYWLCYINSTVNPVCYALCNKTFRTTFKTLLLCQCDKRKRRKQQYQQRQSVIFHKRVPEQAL
So basically: is IC50 under 2 µM? Then criterion met. Not under? Then criterion not met.

Q: Is it true that IC50 reported for CCN(C)CC1CCCCN1CC(=O)N1c2ccccc2C(=O)Nc2cccnc21 (stereo not given) is less than 2 µM?
A: criterion met

Q: Problem: For the molecule CCCCN(C)CC1CCCCN1CC(=O)N1c2ccccc2C(=O)Nc2cccnc21 (stereo not given) , is IC50 under 2 µM?
A: criterion met

Q: Hello, is IC50 of the following molecule strictly smaller than 2 µM? CN(CC1CCCCN1CC(=O)N1c2ccccc2C(=O)Nc2cccnc21)C1CCCCC1 (stereo not given)
A: criterion met

Q: Hi there! Is IC50 for CCN(CC)CC1CCCCN1CC(=O)N1c2ccccc2C(=O)Nc2cccnc21 (stereo in doubt; 10) [OTENZEPAD] below 2 µM, do you know?
A: criterion not met
